# system.name: Proto-oncogene tyrosine-protein kinase Src (Homo sapiens)
# protocol.description: PubChem AID 1671416
# condition.summary: Z'-LYTE FRET kinase activity, recombinant SRC
property.name: pIC50
Notebook: values listed as pIC50 are -log10 of the concentration (mol/L).

Query :: I would be grateful if you could share the reported pIC50 for COc1cc2ncnc(Nc3cccc(Cl)c3)c2cc1OC .
Result :: 5.61

Cited source: PubChem BioAssay AID1671416
